system tested: human α4β2 (Homo sapiens, UniProt P17787+P43681)
assay notes: Competition binding to human α4β2 receptors in membrane preparations
particulars: membranes, [3H]-nicotine competition; Ki by Cheng-Prusoff; read-out: human α4β2 Ki
pKi: −log10 of the molar value.
Classify by measured pKi: t if it is equal to or exceeds 7, f if it is smaller.

Identify whether the reported pKi of the following molecule is 7 or greater: CN1CC2CN(c3cncc(C#N)c3)CC(C1)O2
f

Answer whether pKi of FCCCCOc1cc(N2CC3CNCC(C2)O3)cnc1Cl is greater than or equal to 7.
t

Test whether the molecule Clc1ncc(N2CC3CNCC(C2)O3)cc1C1CC1 records pKi of 7 or higher.
t

Hi team, for Fc1cccc(N2CC3CNCC(C2)O3)c1F , is the recorded pKi at or above 7?
f

Does pKi meet or surpass 7 for Clc1cccc(N2CC3CNCC(C2)O3)c1Cl ?
f

Next:
Check the entry CN1CC2CN(c3cnc(Cl)c(Cl)c3)CC(C1)O2 : does pKi equal or exceed 7?
t

* * *

Can you tell me Ki for the items I'm about to list?
system tested: Human α7 (Homo sapiens)
Construct: host or cells: HEK cells co-expressing RIC3
assay notes: Competition binding to human α7 receptors in membrane preparations
particulars: membranes, [3H]-epibatidine competition; Ki by Cheng-Prusoff; read-out: Human α7 Ki
Answers are plain numbers, in nM.

See these solved cases before continuing.
Value lookup for Ki; key = FCCOc1cc(N2CC3CNCC(C2)O3)cnc1Cl
1600

Look at this compound and give its reported Ki. FC(F)Oc1cc(N2CC3CNCC(C2)O3)cnc1Cl
560

# input compound: N#Cc1ccc(N2CC3CNCC(C2)O3)cn1 ; wanted: its Ki
8100

For c1ncc(N2CC3CNCC(C2)O3)cn1 , what is its reported Ki?
2900

Entry under review: FCCCOc1cc(N2CC3CNCC(C2)O3)cnc1Cl . Reported Ki?
1900

Record request: Ki value, item Cc1cncc(N2CC3CNCC(C2)O3)c1
4500

Hi, could you look up Ki for each item in my list?
1. FC(F)Oc1cncc(N2CC3CNCC(C2)O3)c1
2. c1ncc(N2CC3CNCC(C2)O3)cc1C1CC1
3. Clc1ccc(N2CC3CNCC(C2)O3)cn1
4. Fc1ccc(N2CC3CNCC(C2)O3)cn1
5. Clc1cc(N2CC3CNCC(C2)O3)cnc1Cl

[1600, 1300, 240, 180, 39]

Would you mind giving Ki for every compound in the list below?
1. [O-][n+]1cc(F)cc(N2CC3CNCC(C2)O3)c1
2. Cc1ccc(N2CC3CNCC(C2)O3)cn1
3. Cc1cncc(N2CC3CN(C)CC(C2)O3)c1
4. c1cnc(N2CC3CNCC(C2)O3)cn1
5. COc1cc(N2CC3CNCC(C2)O3)cnc1F
6. c1cncc(N2CC3CNCC(C2)O3)c1
7. FC1(F)Oc2ccc(N3CC4CNCC(C3)O4)cc2O1

[54000, 600, 8700, 2200, 1000, 670, 90000]

Dear colleague, could you please provide Ki for the compounds listed below?
1. Clc1ccc(N2CC3CNCC(C2)O3)nn1
2. c1cc2ncc(N3CC4CNCC(C3)O4)cc2o1
3. FC(F)(F)c1ccc(N2CC3CNCC(C2)O3)cn1
4. Clc1ccc(Oc2cncc(N3CC4CNCC(C3)O4)c2)cc1Cl
5. Clc1ccccc1Oc1cncc(N2CC3CNCC(C2)O3)c1

1. 1300
2. 5700
3. 1900
4. 360
5. 430

I would be grateful if you could provide Ki for each of the following entries.
1. N#Cc1ncc(N2CC3CNCC(C2)O3)cc1OC(F)F
2. c1cc2cc(N3CC4CNCC(C3)O4)cnc2o1

[940, 6600]

Would you kindly share the measured Ki for FCCCCOc1cc(N2CC3CNCC(C2)O3)cnc1Cl ?
1500
